The entries below come with measured growth values attached.
# System: CAKI-1 renal
# Assay summary: NCI-60 one-dose screen, 48 h (100 = growth as untreated, 0 = no growth, -100 = all killed)
# Measurement conditions: 10 µM unless noted
About 83,000 compounds went through this panel and 20% of them were active in at least one assay; those are over-represented in the sample as a whole.
Return type: number; implicit unit %.

Some compounds with recorded growth:
>>> observed_measurement("O=C1CCCCCCCCC(O)C(O)CCCC(c2cccs2)O1 (stereo not given)")
93.9
>>> observed_measurement("Cn1c(COC(=O)NCCc2ccccn2)nc2c(N3CCOCC3)nc(Cl)nc21")
-78.9
>>> observed_measurement("N#Cc1c(Nc2ccccc2)nn2cc(-c3nc4ccccc4s3)c(N)nc12")
82.6

Q: Give a short answer stating reported growth for `O=C1Nc2c(ccc(Cl)c2Cl)/C1=C/c1ccc(O)cc1` .
Ans: 59.7
